- target-under-test: T1, Mouse CLDN18 A2.1 (mouse, UniProt P56857 10-264)
- T1 construct: on transfected HEK293-6E cells; also called Mouse CLDN18 2.1; mouse CLDN18.2 ortholog
- T1 chain: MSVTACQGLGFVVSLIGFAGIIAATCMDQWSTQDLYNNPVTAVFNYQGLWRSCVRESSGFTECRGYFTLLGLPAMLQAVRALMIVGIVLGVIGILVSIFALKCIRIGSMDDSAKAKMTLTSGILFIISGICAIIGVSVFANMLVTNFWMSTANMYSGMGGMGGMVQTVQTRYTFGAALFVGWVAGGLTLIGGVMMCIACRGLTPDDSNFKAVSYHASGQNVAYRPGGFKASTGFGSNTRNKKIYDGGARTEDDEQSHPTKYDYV
- procedure-summary: flow cytometry, HEK293-6E + mouse CLDN18, 4PL fit

binder	Bmax
v37410 (antibody, human IgG1, V domains shown, human IgG1-based monoclonal antibody; also called H3-L4) VH: QVQLVESGGGLVQPGGSLRLSCSVSGIDLSSNPMIWVRQAPGKGLQYIGIIDTDGSTYYADWAKGRFTISKDSSKNTVYLQMNSLRAEDTAVYYCARRLHGSSNGYYDDLWGQGTLVTVSS VL: DGQMTQSPSSVSASVGDRVTITCQASQSIYSYLSWYQQKPGQRPKLLIYKASTLASGVPSRFSGSGSGTDFTLTISSVQPEDFATYYCQQGYTVTNVDKNTFGGGTKVEIK	1690
